Experiment: in vivo
Conditions: mouse
experimental endpoint: LD50

# lookup: LD50 of CC1(C)OOC(CCC(C)(O)C2OCOO2)O1 (stereo not shown) ~3000 mg/kg
